# credit: patent US5554630A

# experimentalSystem: benzodiazepine receptor (GABAA receptor)
# assaySummary: in vitro inhibition of 3H-flunitrazepam binding (rat cerebral cortex membranes)
# Design: species or system rat (male Wistar
# conditionDescription: first table, 1 nM 3H-flunitrazepam, 40 min at 2° C, read-out: IC50
# Text: At present two types of GABA receptors are known, the GABAA and the GABAB receptors. […] Activation of GABA receptors leads to alternations in membrane potential (hyperpolarization). […] The affinity of various potential ligands for the benzodiazepine receptor sites can thus be evaluated by estimating the ability of test compounds to displace 3H-flunitrazepam. […]
Exercise: state measured IC50 for each of the compounds provided.
One number for each entry, in nM.

// worked examples, IC50 included
compound	measValue
Ic1ccc2c(c1)ncn2-c1cccc(-c2cccnc2)c1 [Compound 18a]	1.7
c1ccc(-c2ccc3c(c2)ncn3-c2cccc(-n3ccnc3)c2)cc1 [Compound 9a]	7.4
CC(C)c1ccc2c(c1)ncn2-c1cccc(-n2ccnc2)c1 [Compound 14a]	0.6
CN1C(=O)c2ccccc2-n2cnc3cc(C(F)(F)F)cc1c32 [Compound 2f]	5.4
Cc1ccc2c(c1)ncn2-c1cccc(-n2ccnc2)c1 [Compound 5a]	1.2
CC(C)c1ccc2c(c1)ncn2-c1cccc(-n2cnc3ccccc32)c1 [Compound 34a]	4.3
Cc1nccn1-c1cccc(-n2cnc3cc(-c4ccccc4)ccc32)c1 [Compound 38a]	9
FC(F)(F)c1ccc2c(c1)ncn2-c1cccc(-n2cnc3ccccc32)c1 [Compound 39a]	9.2

Hey, quick one: what's IC50 for each of these?
1. c1cncc(-c2cccc(-n3cnc4cc(-c5ccoc5)ccc43)c2)c1 [Compound 45a]
2. CC(C)(C)c1ccc2c(c1)ncn2-c1cccc(-n2ccnc2)c1 [Compound 6a]

1. 1.2
2. 2.4

---

# experimentalSystem: benzodiazepine receptor (GABAA receptor)
# assaySummary: in vitro inhibition of 3H-flunitrazepam binding (rat cerebral cortex membranes)
# Design: species or system rat (male Wistar
# conditionDescription: second table (R6/R11), 3H-flunitrazepam, read-out: in-vitro binding IC50
# Description: At present two types of GABA receptors are known, the GABAA and the GABAB receptors. […] Activation of GABA receptors leads to alternations in membrane potential (hyperpolarization). […] The affinity of various potential ligands for the benzodiazepine receptor sites can thus be evaluated by estimating the ability of test compounds to displace 3H-flunitrazepam. […]
Exercise: state measured IC50 for each of the molecules provided.
Give bare numbers, in nM.

molecule	IC50 / nM
FC(F)(F)c1ccc2c(c1)ncn2-c1cccc(-n2cnc3ccccc32)c1 [Compound 39a]	9.2
c1ccc(-c2ccc3c(c2)ncn3-c2cccc(-n3ccnc3)c2)cc1	7.2
O=Cc1ccc2c(c1)ncn2-c1cccc(-c2cccnc2)c1 [Compound 50a]	37
CC(C)(C)c1ccc2c(c1)ncn2-c1cccc(-n2ccnc2)c1	2.4
COCc1ccc2c(c1)ncn2-c1cccc(-c2cccnc2)c1 [Compound 58a]	15

Hey, quick one: what's IC50 for each of these?
1. CC(C)c1ccc2c(c1)ncn2-c1cccc(-n2cnc3ccccc32)c1 [Compound 34a]
2. Cc1noc(-c2cccc(-n3cnc4cc(C(C)(C)C)ccc43)c2)n1 [Compound 33a]
3. CC(C)c1ccc2c(c1)ncn2-c1cccc(-c2cccnc2)c1 [Compound 60a]

1: 4.3; 2: 13; 3: 4.2

---

Exercise: state measured IC50 for each of the compounds provided.
# experimentalSystem: benzodiazepine receptor (GABAA receptor)
# assaySummary: in vitro inhibition of 3H-flunitrazepam binding (rat cerebral cortex membranes)
# Design: species or system rat (male Wistar
# conditionDescription: second table (R6/R11), 3H-flunitrazepam, read-out: in-vitro binding IC50
Answers are plain numbers, in nM.

Hey, quick one: what's IC50 for each of these?
1. NC(=O)NN=Cc1ccc2c(c1)ncn2-c1cccc(-c2cccnc2)c1 [Compound 55a]
2. CC(C)c1ccc2c(c1)ncn2-c1cccc(-n2ccnc2)c1 [Compound 14a]
3. Ic1ccc2c(c1)ncn2-c1cccc(-c2cccnc2)c1 [Compound 18a]
4. FC(F)(F)c1ccc2c(c1)ncn2-c1cccc(-n2ccnc2)c1
5. CC(C)(C)c1ccc2c(c1)ncn2-c1cccc(-c2cccnc2)c1 [Compound 22a]

[7.6, 0.6, 1.7, 16, 10]

---

# experimentalSystem: benzodiazepine receptor (GABAA receptor)
# assaySummary: in vitro inhibition of 3H-flunitrazepam binding (rat cerebral cortex membranes)
# Parameters: species or system rat (male Wistar
# conditionDescription: second table (R6/R11), 3H-flunitrazepam, read-out: in-vitro binding IC50
Cut-off 10 nM on IC50: below means Y, at or above means N.

Study these solved cases before continuing.
compound	label
CON=Cc1ccc2c(c1)ncn2-c1cccc(-c2cccnc2)c1 [Compound 59a]	Y
c1cncc(-c2cccc(-n3cnc4cc(-n5ccnc5)ccc43)c2)c1 [Compound 56a]	N
Cc1ccc2c(c1)ncn2-c1cccc(-n2ccnc2)c1 [Compound 5a]	Y
Cc1cn(-c2cccc(-n3cnc4cc(C(C)(C)C)ccc43)c2)cn1 [Compound 8a]	N
ON=Cc1ccc2c(c1)ncn2-c1cccc(-c2cccnc2)c1 [Compound 52a]	Y
O=CNc1ccc2c(c1)ncn2-c1cccc(-n2ccnc2)c1 [Compound 41a]	N

Is IC50 of c1cncc(-c2cccc(-n3cnc4cc(-c5nc(C6CC6)no5)ccc43)c2)c1 [Compound 53a] strictly below 10 nM?
N

Is IC50 of c1cncc(-c2cccc(-n3cnc4cc(-c5ccoc5)ccc43)c2)c1 [Compound 45a] strictly below 10 nM?
Y

Is IC50 of O=[N+]([O-])c1ccc2c(c1)ncn2-c1cccc(-c2cccnc2)c1 [Compound 24a] strictly below 10 nM?
N

Is IC50 of c1cncc(-c2cccc(-n3cnc4cc(-c5ccco5)ccc43)c2)c1 [Compound 57a] strictly below 10 nM?
Y

Is IC50 of Cc1nccn1-c1cccc(-n2cnc3cc(-c4ccccc4)ccc32)c1 [Compound 38a] strictly below 10 nM?
Y

Is IC50 of CC(C)OC(=O)c1ccc2c(c1)ncn2-c1cccc(-n2ccnc2)c1 [Compound 4a] strictly below 10 nM?
N
